study-target: HTRA2, O43464
Sequence (O43464 355-458): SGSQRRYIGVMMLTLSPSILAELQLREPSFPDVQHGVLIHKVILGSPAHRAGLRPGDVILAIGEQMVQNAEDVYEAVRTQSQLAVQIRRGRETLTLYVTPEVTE
assay: holdup assay
Set-up: key: below the threshold = too weak to quantify, mostly under pKd 3.1 to 4
experimental-setup: plain residues with an end cap or a label only (N-terminal biotin on a linker: ado-ado)
measured-endpoint: pKd

The following binders have reported results that may help.
binder: DDPSTAETVL [ABCA7, Q8IZY2]
readout-value: below the threshold
--
binder: GSGAVEMESV [AQP6, Q13520]
readout-value: below the threshold
--
binder: KKAPTNEFYA [SDC4, P31431]
readout-value: below the threshold
--
binder: KSGKQTMLVV [TRIM29, Q14134]
readout-value: 3.68
--
binder: PEYLGLDVPV [ERBB2, P04626]
readout-value: below the threshold

Query: Returns the measured pKd for the input binder. Input: EALLQMESVA [CAVIN3, Q969G5]
Reply: below the threshold

Query: Returns the measured pKd for the input binder. Input: ETQVTAETVI [TMEM225B, P0DP42]
Reply: below the threshold

Query: Returns the measured pKd for the input binder. Input: VKPQVSESKL [ACOT8, O14734]
Reply: below the threshold

Query: Returns the measured pKd for the input binder. Input: PLSPEQPTKL [TRIM50, Q86XT4]
Reply: below the threshold

Query: Returns the measured pKd for the input binder. Input: IPLDGETEEL [MYOZ1, Q9NP98]
Reply: below the threshold

Query: Returns the measured pKd for the input binder. Input: QSLNRMEYIV [JAG1, P78504]
Reply: 3.88

Query: Returns the measured pKd for the input binder. Input: RRLPGKETMA [GRIK2, Q13002]
Reply: below the threshold

Query: Returns the measured pKd for the input binder. Input: TKGPRGPTRV [SAPCD1, Q5SSQ6]
Reply: below the threshold

Query: Returns the measured pKd for the input binder. Input: YRLAQESGLV [ABCC6, O95255]
Reply: below the threshold

Query: Returns the measured pKd for the input binder. Input: DTTVPESEDL [MYOZ2, Q9NPC6]
Reply: below the threshold

Query: Returns the measured pKd for the input binder. Input: PKRSFIESNV [TANC1, Q9C0D5]
Reply: below the threshold
